Reported self-cleavage values for the following variants.
B1: LINE1-mini (parent)
chain: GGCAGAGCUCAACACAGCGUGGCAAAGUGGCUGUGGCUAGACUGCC

# Variants of: B1
# ASSAY_EXPLANATION: self-cleavage, relative activity (ratio to wild type); higher = more cleavage; in vitro, sequencing; the parent is a self-cleaving ribozyme
API doc: respond with a numeric literal and nothing else, no unit.

Solved entries (count: 2):
C18A U34C	0.06
C23G C42U	0.47

If you can, please state the reported self-cleavage value of U9G G22A .
0.21

If you can, please state the reported self-cleavage value of C31U C37U .
0.07

If you can, please state the reported self-cleavage value of A16C C46G .
0.09

If you can, please state the reported self-cleavage value of U20A G21C .
0.39

If you can, please state the reported self-cleavage value of C15G G17A .
0.05

If you can, please state the reported self-cleavage value of C23U A41C .
0.06

If you can, please state the reported self-cleavage value of A24G U28C .
0.72
